- procedure_details: in vitro
- experimental_context: human, CC50 (μM), Table 2 amides; HepDES19 cells, MTT
endpoint: CC50 at 24 h (µM)

compound=CCS(=O)(=O)N1CCN(C(=O)c2cc(O)c(=O)c(O)cc2C)CC1 readout_units=µM data_value=27.1
compound=Cc1cc(O)c(=O)c(O)cc1C(=O)N1CCN(c2ccc(C(F)(F)F)cc2)CC1 readout_units=µM data_value=5.5
compound=CCCCNC(=O)c1cc(O)c(=O)c(O)cc1C readout_units=µM data_value=8.7
compound=Cc1cc(O)c(=O)c(O)cc1C(=O)NCc1ccc(OC(F)(F)F)cc1 readout_units=µM data_value=30.1
compound=Cc1cc(O)c(=O)c(O)cc1C(=O)Nc1ccc(F)nc1 readout_units=µM data_value=19.4
compound=Cc1cc(O)c(=O)c(O)cc1C(=O)N1CCN(C(=O)OC(C)(C)C)CC1 readout_units=µM data_value=19.5
compound=Cc1cc(O)c(=O)c(O)cc1C(=O)N1CCN(C(c2ccc(F)cc2)c2ccc(F)cc2)CC1 readout_units=µM data_value=3.9
compound=Cc1cc(O)c(=O)c(O)cc1C(=O)N1CCN(C2CC2)CC1 readout_units=µM data_value=36.6
compound=Cc1cc(O)c(=O)c(O)cc1C(=O)NCc1ccc(-c2ccccc2)cc1 readout_units=µM data_value=3.6
